- Test system: galium (catchweed bedstraw, Galium aparine)
- assay_details: Test A1 postemergence, galium
- Type: in vivo
- applied_conditions: Postemergence, 31 g ai/ha; 0 to 100 scale (0 no effect, 100 complete control); 10 days
Give measured Plant response rating, Galium for each item. Keep answers brief.
Give bare numbers.

Report Plant response rating, Galium for every entry below.
1. Cc1cc(F)c(NS(=O)(=O)C(F)(F)F)cc1C1=NOC2(CCCC2)C1
2. CCOC(=O)N(c1cc(C(=O)N2CCOCC2)c(C)c(C)c1C)S(=O)(=O)C(F)(F)F
3. Cc1c(C(=O)N2CCCCC2)cc(NS(=O)(=O)C(F)(F)F)c(Cl)c1F
4. CCC1ON=C(c2cc(NS(=O)(=O)C(F)(F)F)c(C)cc2C)C1CC (stereo not drawn) [Compound 343]
5. Cc1cc(C)c(C2=NOC3CCCCCC23)cc1NS(=O)(=O)C(F)(F)F (stereo not drawn)
6. Cc1cc(C)c(N(COC(=O)C(C)(C)C)S(=O)(=O)C(F)(F)F)cc1C1=NOC2OCCC12 (stereo not drawn)

Result:
[60, 40, 70, 70, 80, 100]

----------
- Test system: pigweed (Amaranthus retroflexus)
- assay_details: Test A preemergence, pigweed
- Type: in vivo
- applied_conditions: 500 g ai/ha, 0 to 100 scale (0 no effect, 100 complete control)
attribute_measured: Plant response rating, Pigweed
Answers are plain numbers.

// known answers, use as guide
Cc1cc(C)c(C(=O)N2CCC(F)(F)C2)cc1NS(=O)(=O)C(F)(F)F
100
Cc1c(NS(=O)(=O)C(F)(F)F)cc(C(=O)N2CCC3(CC2)OCCCO3)c(C)c1F
100
Cc1cc(C)c(-c2ccnn(C)c2=O)cc1NS(=O)(=O)C(F)(F)F
90

Moving on to the next compound.
Request: Recorded Plant response rating, Pigweed for Cc1cc(F)c(-c2ccnn(C)c2=O)cc1NS(=O)(=O)C(F)(F)F with pigweed (Amaranthus retroflexus), please?
Result: 90

----------
Give measured Plant response rating, Kochia for each item. Keep answers brief.
- Test system: kochia (Bassia scoparia)
- assay_details: Test A postemergence, kochia
- Assay type: in vivo
- applied_conditions: Postemergence, 125 g ai/ha; 0 to 100 scale (0 no effect, 100 complete control)
Numbers only.

// known answers, use as guide
CC(=O)OCN(c1cc(C2=NOC3(CCCC3)C2)c(C)cc1C)S(=O)(=O)C(F)(F)F [Compound 218]
60
Cc1cc(C)c(C(=O)N2CCCOCC2)cc1NS(=O)(=O)C(F)(F)F [Compound 160]
10
Cc1cc(F)c(C(=O)N2CCOCC2)cc1N(S(=O)(=O)C(F)(F)F)S(=O)(=O)C(F)(F)F [Compound 237]
70
COC1CCN(C(=O)c2cc(NS(=O)(=O)C(F)(F)F)c(Cl)cc2C)CC1 [Compound 246]
20
C#CCN(C)C(=O)c1cc(N(S(=O)(=O)C(F)(F)F)S(=O)(=O)C(F)(F)F)c(C)c(F)c1C [Compound 147]
50
CCC1(CC)CC(c2cc(NS(=O)(=O)C(F)(F)F)c(C)cc2C)=NO1 [Compound 209]
20
CC(=O)N(c1cc(N2CCC3(CCCCC3)C2=O)c(C)cc1C)S(=O)(=O)C(F)(F)F [Compound 265]
40
Cc1cc(C)c(C2=NOC3(CCSCC3)C2)cc1NS(=O)(=O)C(F)(F)F [Compound 176]
40

Report Plant response rating, Kochia for every entry below.
1. Cc1cc(Cl)c(C(=O)N(C)C)cc1N(S(=O)(=O)C(F)(F)F)S(=O)(=O)C(F)(F)F [Compound 256]
2. Cc1cc(C)c(N(S(=O)(=O)C(F)(F)F)S(=O)(=O)C(F)(F)F)cc1C1=NOC(C)(CCl)C1 (centres unmarked) [Compound 227]
3. CC(=O)N(c1cc(C2=NOC3(CCCC3)C2)c(C)cc1C)S(=O)(=O)C(F)(F)F [Compound 220]
4. Cc1cc(C)c(C2=NOC3(CCC(C)(C)CC3)C2)cc1NS(=O)(=O)C(F)(F)F [Compound 163]

Result:
50
10
20
10

Report Plant response rating, Kochia for every entry below.
1. Cc1cc(F)c(C(=O)N2CCCCC2)cc1N(S(=O)(=O)C(F)(F)F)S(=O)(=O)C(F)(F)F [Compound 212]
2. Cc1cc(C(F)(F)F)c(C(=O)N2CCCCC2)cc1NS(=O)(=O)C(F)(F)F [Compound 180]

Result:
[20, 10]

Report Plant response rating, Kochia for every entry below.
1. Cc1cc(C)c(N(S(=O)(=O)C(F)(F)F)S(=O)(=O)C(F)(F)F)cc1C1=NOC2(CCC2)C1 [Compound 196]
2. Cc1cc(C)c(C(=O)N2CCC3(CCCC3)C2)cc1NS(=O)(=O)C(F)(F)F [Compound 225]

Result:
[10, 0]

----------
- Test system: pigweed (Amaranthus retroflexus)
- assay_details: Test A preemergence, pigweed
- Type: in vivo
- applied_conditions: 500 g ai/ha, 0 to 100 scale (0 no effect, 100 complete control)
Give measured Plant response rating, Pigweed for each item. Keep answers brief.
Numbers only.

// known answers, use as guide
Cc1cc(Cl)c(N(S(=O)(=O)C(F)(F)F)S(=O)(=O)C(F)(F)F)cc1-c1cn(C)c(=O)n(C)c1=O
80
Cc1c(NS(=O)(=O)C(F)(F)F)cc(C(=O)N2CCCCC2)c(C)c1F
100
Cc1cc(Cl)c(NS(=O)(=O)C(F)(F)F)cc1C(=O)N(C)C
100

Moving on to the next compound.
Request: Fill in: Plant response rating, Pigweed of Cc1cc(C)c(C2=NOC3(CCC(C)(C)CC3)C2)cc1NS(=O)(=O)C(F)(F)F is ___
Result: 100

----------
- System: barnyardgrass (Echinochloa crus-galli)
- assay_details: Test A preemergence, barnyardgrass
- Type: in vivo
- applied_conditions: Preemergence, 500 g ai/ha; visual injury on 0 to 100 scale (0 no effect, 100 complete control), approximately 10 days
Give measured Barnyardgrass plant response rating for each item. Keep answers brief.
Give bare numbers.

Cc1cc(Cl)c(C(=O)N2CCCCC2)cc1NS(=O)(=O)C(F)(F)F [Compound 252]
100

Report Barnyardgrass plant response rating for every entry below.
1. Cc1cc(C)c(C2=NOC3(CCCCCC3)C2)cc1NS(=O)(=O)C(F)(F)F [Compound 277]
2. Cc1cc(C)c(N2CC3(CCCCC3)OC2=O)cc1NS(=O)(=O)C(F)(F)F [Compound 279]
3. Cc1cc(Cl)c(C(=O)N2CCOCC2)cc1NS(=O)(=O)C(F)(F)F [Compound 248]
4. Cc1cc(Cl)c(C(=O)N(C)C)cc1N(S(=O)(=O)C(F)(F)F)S(=O)(=O)C(F)(F)F [Compound 256]
5. Cc1cc(Cl)c(C(=O)N2CCCCC2)cc1N(S(=O)(=O)C(F)(F)F)S(=O)(=O)C(F)(F)F [Compound 253]
6. Cc1cc(Cl)c(C(=O)N2CCOCC2)cc1N(S(=O)(=O)C(F)(F)F)S(=O)(=O)C(F)(F)F [Compound 250]

Result:
1: 100; 2: 100; 3: 90; 4: 100; 5: 70; 6: 90

Report Barnyardgrass plant response rating for every entry below.
1. COC1CCN(C(=O)c2cc(NS(=O)(=O)C(F)(F)F)c(Cl)cc2C)CC1 [Compound 246]
2. Cc1cc(C)c(N(S(=O)(=O)C(F)(F)F)S(=O)(=O)C(F)(F)F)cc1N1CC2(CCCCC2)OC1=O [Compound 269]
3. CC(=O)N(c1cc(N2CCC3(CCCCC3)C2=O)c(C)cc1C)S(=O)(=O)C(F)(F)F [Compound 265]

Result:
100
100
100

----------
- Tested on: corn (Zea mays)
- assay_details: Test A postemergence, corn
- Assay type: in vivo
- applied_conditions: Postemergence, 500 g ai/ha; visual injury, 0 to 100 scale (0 no effect, 100 complete control), approx. 10 days
attribute_measured: Plant response rating, Corn
Numbers only.

Cc1cc(C)c(C(=O)N2CC(C)OC(C)C2)cc1NS(=O)(=O)C(F)(F)F (stereo not drawn)
70
CCc1cc(-c2cc(N(S(=O)(=O)C(F)(F)F)S(=O)(=O)C(F)(F)F)c(C)cc2C)c(=O)n(C)n1
0

Moving on to the next compound.
Request: Fill in: Plant response rating, Corn of CCn1cc(-c2cc(NS(=O)(=O)C(F)(F)F)c(C)cc2C)c(=O)n(C)c1=O is ___
Result: 80

----------
Give measured Ryegrass, Italian plant response rating for each item. Keep answers brief.
- System: Ryegrass, Italian (Italian ryegrass, Lolium multiflorum)
- assay_details: Test A postemergence, Ryegrass, Italian
- Format: in vivo
- applied_conditions: Postemergence, 500 g ai/ha; visual injury vs untreated controls after approx. 10 days; 0 to 100 scale (0 no effect, 100 complete control)
Give bare numbers.

// known answers, use as guide
CCCn1nccc(-c2cc(NS(=O)(=O)C(F)(F)F)c(C)cc2C)c1=O
60
Cc1cc(C)c(-c2cc(C(F)(F)F)nn(C)c2=O)cc1NS(=O)(=O)C(F)(F)F
80

Report Ryegrass, Italian plant response rating for every entry below.
1. C#CCN(CC#C)C(=O)c1cc(NS(=O)(=O)C(F)(F)F)c(C)cc1C
2. Cc1cc(-c2cc(NS(=O)(=O)C(F)(F)F)c(C)cc2C)c(=O)n(C)n1
3. Cc1cc(Cl)c(NS(=O)(=O)C(F)(F)F)cc1C1=NOC(C)(C)C1
4. Cc1cc(C)c(N(S(=O)(=O)C(F)(F)F)S(=O)(=O)C(F)(F)F)cc1C1=NOC2(CCCCCC2)C1
5. Cc1cc(C)c(C(=O)N(C)CC2CC2)cc1NS(=O)(=O)C(F)(F)F

Result:
80
20
60
0
30
